Tested on: Nicotinate-nucleotide adenylyltransferase NadD (Staphylococcus aureus N315)
assay_info: inhibitors of S. aureus NadD, primary screen, biochemical, colorimetric, uHTS (AID 602399)
setup_conditions: purified NadD enzyme, colorimetric absorbance read-out; at 20 µM
About 2,800 (0.78%) of roughly 360,000 compounds were called active. No stated cut-off is given here; in the data, active means inhibition above about 26%; inactive means the rest. This is one part of a sample in which actives are shown more often than they occur.
Parameter call: string, one of active, inactive

Look over these answered cases.
# molecule, class_assignment
rows = [
    ("O=C(CSc1ccccc1)Nc1cc(Cl)ccc1Oc1ccccc1", "inactive"),
    ("Cc1c2cnn(-c3ccccc3)c(=O)c2c(C)n1CCCC(=O)N1CCN(C)CC1", "inactive"),
    ("Cc1ccc(Cc2cnc(NC(=O)/C(C#N)=C/c3ccc(-c4cccc([N+](=O)[O-])c4)o3)s2)cc1", "active"),
]

Prompt: Short answer needed: outcome of this test for Cc1nn(C)c(C)c1Sc1ccccc1N ?
Response: inactive

Prompt: Short answer needed: outcome of this test for Brc1cnc(N2CCCC2)nc1N1CCCCC1 ?
Response: inactive
